The values you see were collected from ChEMBL document CHEMBL3525925.

- Test system: Liver microsome
- assay summary: Retention time in human liver microsomes treated with 10 uM 20(S)-ginsenoside Rh2 by MS2 spectra
- Assay type: ADME
# Retention_time listing for each entry below
Give the quantity in min, number only.

For orientation, consider the following solved cases.
INSERT INTO results (compound, reported_measurement) VALUES
  ('CC1(C)[C@@H](O[C@@H]2O[C@H](CO)[C@@H](O)[C@H](O)[C@H]2O)CC[C@]2(C)[C@H]3C[C@@H](O)[C@@H]4[C@@H]([C@@](C)(O)CCC=C(CO)CO)CC[C@@]4(C)[C@]3(C)CC[C@@H]12', 12.2),
  ('C/C(=C\CC[C@](C)(O)[C@H]1CC[C@]2(C)[C@@H]1[C@H](O)C[C@@H]1[C@@]3(C)CC[C@H](O[C@@H]4O[C@H](CO)[C@@H](O)[C@H](O)[C@H]4O)C(C)(C)[C@@H]3CC[C@]12C)CO', 16.7),
  ('CC(O)(CO)[C@H]1CC[C@@](C)([C@H]2CC[C@]3(C)[C@@H]2[C@H](O)C[C@@H]2[C@@]4(C)CC[C@H](O[C@@H]5O[C@H](CO)[C@@H](O)[C@H](O)[C@H]5O)C(C)(C)[C@@H]4CC[C@]23C)O1 (stereo not given in full)', 16.7),
  ('CC(C)(O)[C@@H]1CC[C@@](C)([C@H]2CC[C@]3(C)[C@@H]2[C@H](O)C[C@@H]2[C@@]4(C)CC[C@H](O[C@@H]5O[C@H](CO)[C@@H](O)[C@H](O)[C@H]5O)C(C)(C)[C@@H]4CC[C@]23C)O1', 18.9);

*Q* Fill in: Retention_time of "CC1(C)[C@@H](O[C@@H]2O[C@H](CO)[C@@H](O)[C@H](O)[C@H]2O)CC[C@]2(C)[C@H]3C[C@@H](O)[C@@H]4[C@@H]([C@@](C)(O)CC[C@@H]5O[C@@]5(C)CO)CC[C@@]4(C)[C@]3(C)CC[C@@H]12" is ___
*A* 15.6
